# targetDesc: Fyn (UniProt P06241)
# Sequence (P06241 whole entry, looked up): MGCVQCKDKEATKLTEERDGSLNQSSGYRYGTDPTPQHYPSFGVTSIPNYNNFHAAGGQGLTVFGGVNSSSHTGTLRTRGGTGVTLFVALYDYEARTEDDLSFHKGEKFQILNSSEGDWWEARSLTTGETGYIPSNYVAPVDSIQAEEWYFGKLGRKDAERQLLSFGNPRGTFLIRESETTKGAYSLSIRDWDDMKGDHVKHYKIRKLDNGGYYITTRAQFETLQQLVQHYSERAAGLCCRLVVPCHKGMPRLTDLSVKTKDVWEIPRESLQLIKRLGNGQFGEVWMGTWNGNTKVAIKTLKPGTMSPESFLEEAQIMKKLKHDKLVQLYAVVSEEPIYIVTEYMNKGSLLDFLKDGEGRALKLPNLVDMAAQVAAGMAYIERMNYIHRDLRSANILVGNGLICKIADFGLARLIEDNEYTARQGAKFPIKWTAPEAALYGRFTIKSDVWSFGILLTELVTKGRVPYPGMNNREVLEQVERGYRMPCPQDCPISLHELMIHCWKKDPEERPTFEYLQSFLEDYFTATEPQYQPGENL
# experimentalDetails: pIC50, kinobeads binding competition
# conditionDetails: cell material: Lysate mix
Listing of recorded pIC50 by entry.

Field: example entries. Status: answers known.
[[record]]
compound = "CCNC(=O)c1cc(Nc2cc(C3CC3)[nH]n2)nc(N2CCN(Cc3ccc(S(=O)(=O)F)cc3)CC2)n1"
targetdesc = "Fyn (UniProt P06241)"
obsvalue = 5.81

[[record]]
compound = "O=C(NCCNC(=O)c1cc(Nc2cc(C3CC3)[nH]n2)nc(N2CCN(Cc3ccc(S(=O)(=O)F)cc3)CC2)n1)OC1CC/C=C/CCC1 (stereo unspecified)"
targetdesc = "Fyn (UniProt P06241)"
obsvalue = "< 4.52"


Note to self: pIC50 of C#CCNC(=O)c1cc(Nc2cc(C3CC3)[nH]n2)nc(N2CCN(Cc3ccc(S(=O)(=O)F)cc3)CC2)n1 with Fyn (UniProt P06241) was 5.9

Note to self: pIC50 of CCNC(=O)c1cc(Nc2cc(C)[nH]n2)nc(N2CCN(Cc3ccc(S(=O)(=O)F)cc3)CC2)n1 with Fyn (UniProt P06241) was 6.74

Note to self: pIC50 of Cc1cc(Nc2cc(C(=O)NCCNC(=O)OC3CC/C=C/CCC3)nc(N3CCN(Cc4ccc(S(=O)(=O)F)cc4)CC3)n2)n[nH]1 (stereo unspecified) with Fyn (UniProt P06241) was 4.58

Note to self: pIC50 of C#CCNC(=O)c1cc(Nc2cc(C)[nH]n2)nc(N2CCN(Cc3ccc(S(=O)(=O)F)cc3)CC2)n1 with Fyn (UniProt P06241) was 5.93

The reported measurements were obtained from the supplement of paper PMC12076712.
